# method: NCI Yeast Anticancer Drug Screen. Data for the mec2-1 strain (AID 157)
# assay_setup: S. cerevisiae mec2-1 strain, at 50.0 µM
The panel holds about 79,000 compounds, 15% with a hit somewhere; the sample as a whole holds those more often. The source made the active and inactive calls. Rule as the data show it: active = growth inhibition above about 70%; inactive = the rest.
Write down one outcome, taken from active, inactive

Cc1cc(Cl)ccc1OCC(=O)Oc1c(Cl)c(Cl)c(Cl)c(Cl)c1Cl	active
O=C1c2ccccc2C(O)(C#Cc2ccccc2)c2cnccc21 (stereo not given)	active
C/C(=N\NC(=S)N(C)C1CCCCC1)c1ccc2ccccc2n1	active
Cc1c2ccccc2c(CSC(=N)N)c2ccccc12	active

Kindly review the next compound as well.
Hey, what did the test say about OC1C2COc3nc4ccccc4n3C(O2)C1O (stereo not given) ? inactive
